# System: Staphylococcus aureus
# experiment_description: Antimicrobial activity against Staphylococcus aureus ATCC 25923 assessed as growth inhibition after 18-24 hr by broth double microdilution method
# Type: functional
Activity calls are given as the source filed them. The calls are words filed in the database; no cut-off is given here.
result_type: MIC

Here is how some compounds turned out for MIC.
>  <compound>
Cc1nn(Cc2nnc(S)n2-c2ccccc2)c(=O)n1/N=C/c1ccncc1

>  <observed_value>
inactive

$$$$
>  <compound>
Cc1nn(CN2CCN(c3ccccc3)CC2)c(=O)n1CCCn1ccnc1

>  <observed_value>
62.5 µg/mL

$$$$
>  <compound>
Cc1nn(CC(=O)N/N=c2\sc(-c3ccc(Cl)cc3)cn2-c2ccccc2)c(=O)n1/N=C/c1ccncc1

>  <observed_value>
125 µg/mL

$$$$
>  <compound>
CCOC(=O)Cn1nc(C)n(/N=C/c2ccncc2)c1=O

>  <observed_value>
inactive

$$$$

Incoming: Lab note: record MIC of `Cc1nn(CC(=O)N/N=C2\SCC(=O)N2c2ccccc2)c(=O)n1CCCn1ccnc1` tested on Staphylococcus aureus.
Outgoing: inactive

Incoming: Lab note: record MIC of `Cc1n[nH]c(=O)n1/N=C/c1ccncc1` tested on Staphylococcus aureus.
Outgoing: inactive

Incoming: Lab note: record MIC of `COc1ccc(/C=N/NC(=O)Cn2nc(C)n(/N=C/c3ccncc3)c2=O)cc1` tested on Staphylococcus aureus.
Outgoing: inactive

Incoming: Lab note: record MIC of `Cc1nn(CNCCN2CCNCC2)c(=O)n1CCCn1ccnc1` tested on Staphylococcus aureus.
Outgoing: 125 µg/mL

Incoming: Lab note: record MIC of `COc1ccc(/C=N/NC(=O)Cn2nc(C)n(/N=C/c3ccncc3)c2=O)cc1O` tested on Staphylococcus aureus.
Outgoing: inactive

Incoming: Lab note: record MIC of CC1(C)S[C@@H]2[C@H](NC(=O)[C@H](N)c3ccccc3)C(=O)N2[C@H]1C(=O)O [AMPICILLIN] tested on Staphylococcus aureus.
Outgoing: 2 µg/mL
